Assay: Components of the Cytosolic LPS Sensing Pathway: Gene Identification via Genome-wide siRNA Screen;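 note: robust z of the log signal after scaling to non-targeting control siRNA wells of the plate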
Conditions: RAW264.7 macrophages, IL-1a HTRF, actives lie on both sides, screened at 100 nM (by protocol), cells primed 5 h with Pam3CSK4 first
About 3,700 (7%) of roughly 53,000 sequences were called active. Only a selection was taken, and actives are over-represented in it overall.
readout-kind: z-score

# example entries with known answers
>>> print(df.to_string())
                         record_sequence    observed_result
0    GGCCCUGUGUUUAUCAAAGTT against Cntn3   0.814 (inactive)
1     GGUUUUAAUUUCAACUGUCTT against Tpp1  -0.468 (inactive)
2   GCAACACACUGCUUCCUGGTT against Tmem19   -1.38 (inactive)
3    GGACUAUGGCUCAGCACUCTT against Ttyh1  -0.394 (inactive)
4  GGGAUGUGAGGGAAUUAACTT against B4galt3   -1.03 (inactive)

Entry GGAGAUCCUGGAAGACUUCTT against Ocstamp has what z-score?
2.18 (active)

Entry GGAUUCUCCAGACACCUUGTT against Styxl1 has what z-score?
-0.704 (inactive)

Entry GGAUUUCACAGUCAAAAUUTT against Insrr has what z-score?
-0.825 (inactive)

Entry GGAAAUGACAAGUAUGAAGTT against Gria4 has what z-score?
-1.33 (inactive)

Entry GGCUUUGCUGAAUGUCUCATT against Nrn1l has what z-score?
0.443 (inactive)

These entries and their values trace back to PubChem BioAssay AID1508600.
